Measured MFI of individual entries
molecular target: T1, cynomolgus monkey GPRC5D (cynomolgus monkey); assay: FACS, HEK293T-cynoGPRC5D cells
T1 construct: whole, on cells; HEK293T-cynoGPRC5D cells; also called cynoGPRC5D

- BINDER: "110B4H5 (antibody, V domains shown, Mouse monoclonal antibody from hybridoma subclone) VH: EVQLQQSGPELVKPGASVKMSCKASGYTFTFYIMHWVKQKPGQGPEWIGYINPYNDGTKYNAKFKGKATLSSDRSSSTAYMELSSLTSEDSAVYYCARGGVRRYFDVWGAGTPVTVSS VL: DIQMTQSPSSLSASLGERVSLTCRSSQDIGSNLNWLQQEPDGTIKRLIYATFSLDSGVPKRFSGSRSGSHYSLTISSLESEDFVVYYCLQYGSFPYTFGGGTKLEIK"
  MFI: 2470
- BINDER: "82A1C10 (antibody, V domains shown, Mouse monoclonal antibody from hybridoma subclone) VH: QVQLKESGPGLVAPSQSLSITCTVSGFSLTNYAVTWVRQPPGKGLEWLGVIWGDGSTYYHSALVSRLSITKDNSRTQVLLKLNSLQTDDTARYYCAKGGYSPFAYWGQGTLVTVSA VL: DVVMTQTPLSLPVSLGDQASISCRSSQSLVHSNGNTYLHWYLQKPGQSPKLLIFKVSNRFSGVPDRFSGSGSGTDFTLKISRVEAEDLGVYFCSQNTHVPFTFGSGTKLEIK"
  MFI: 1070
